system: MCF7; experiment: compound was tested in vitro for inhibition activity against a sensitive human breast carcinoma line cells.; type: functional, cell-based
Form field: IC50 (one value per entry).
Measurement Type: IC50 (nM equiv l-1)

COc1cccc2c1C(=O)c1c(O)c3c(c(O)c1C2=O)C[C@@](O)(C(=O)CO)C[C@@H]3O[C@H]1C[C@H](N)[C@H](O)[C@H](C)O1 | 300
COc1cccc2c1C(=O)c1c(O)c3c(c(O)c1C2=O)C[C@@](O)(C(C)=O)C[C@@H]3OC1CC2C(OCN2CN2COC3C(C)OC(O[C@H]4C[C@](O)(C(C)=O)Cc5c(O)c6c(c(O)c54)C(=O)c4c(OC)cccc4C6=O)CC32)C(C)O1 (some centres undefined) [DAUNOFORM] | 8
COc1cccc2c1C(=O)c1c(O)c3c(c(O)c1C2=O)C[C@@](O)(C(=O)CO)C[C@@H]3OC1CC2C(OCN2CN2COC3C(C)OC(O[C@H]4C[C@](O)(C(=O)CO)Cc5c(O)c6c(c(O)c54)C(=O)c4c(OC)cccc4C6=O)CC32)C(C)O1 (some centres undefined) [DOXOFORM] | 2
COc1cccc2c1C(=O)c1c(O)c3c(c(O)c1C2=O)C[C@@](O)(C(C)=O)C[C@@H]3O[C@H]1C[C@H](N)[C@H](O)[C@H](C)O1 | 60
